test system: Staphylococcus aureus; assay: microbe, parasite or virus in culture; format: functional; conditions: ATCC 33591
Description: Antimicrobial activity against methicillin-resistant Staphylococcus aureus ATCC 33591 by broth microdilution method
For each of the compounds below, state its MIC.
Write the answer as a number in µg/mL, unit excluded.

Look up MIC for this compound: CC(C)(C)c1cccc(-c2cnc3c(CNC(=N)N)cccc3n2)c1
4

Look up MIC for this compound: C[n+]1cc(-c2ccc(C(C)(C)C)cc2)nc2ccccc21.[I-]
1

Look up MIC for this compound: CC(=N)NCc1cccc2c(-c3ccc(C(C)(C)C)cc3)ncnc12
64

Look up MIC for this compound: COC(=O)c1cc(-c2ccc(C(C)(C)C)cc2)cc(-c2c[n+](C)c3ccccc3n2)c1.[I-]
1

Look up MIC for this compound: C[n+]1cc(-c2cc(C(N)=O)cc(-c3ccc(C(C)(C)C)cc3)c2)nc2ccccc21.[I-]
2

Look up MIC for this compound: CC(C)(C)c1ccc(-c2ncnc3c(CN)cccc23)cc1
64

Look up MIC for this compound: CC(C)(C)c1ccc(-c2cnc3c(CNC(=N)N)cccc3n2)cc1
4

Every entry's value here was drawn from ChEMBL document CHEMBL2413051.
